target: human p38 kinase alpha (Homo sapiens, UniProt Q16539); construct: GST (N, cleaved yes); made in house; host or cells: E. coli DH10B; experiment: p38 kinase in vitro assay, phosphorylation of biotinylated PHAS-I with 32P-ATP; format: biochemical; conditions: @ 10.0 uM
Sequence (Q16539 whole entry): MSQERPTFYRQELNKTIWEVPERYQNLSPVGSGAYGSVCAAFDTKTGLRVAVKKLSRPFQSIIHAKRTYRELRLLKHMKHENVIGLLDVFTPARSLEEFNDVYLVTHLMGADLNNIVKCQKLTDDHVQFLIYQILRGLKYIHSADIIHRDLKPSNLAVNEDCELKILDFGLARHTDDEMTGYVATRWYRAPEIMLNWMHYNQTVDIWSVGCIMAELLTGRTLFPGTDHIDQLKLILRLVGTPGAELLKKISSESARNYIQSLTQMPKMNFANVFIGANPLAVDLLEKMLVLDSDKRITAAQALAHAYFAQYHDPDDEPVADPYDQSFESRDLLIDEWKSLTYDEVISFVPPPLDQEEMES
ASSAY_READOUT: P38 alpha kinase IC50, uM or % inhib @ conc. (uM): % inhib (% @)

I. CCc1cccc(CC)c1NC(=O)Cn1nc(-c2ccc(F)cc2)c(-c2ccncc2)c1C
II. COC(=O)C1CN1C(=O)Cn1nc(-c2ccc(F)cc2)c(-c2ccncc2)c1C (stereo not shown)
Query string: Hi, I'm comparing I with II and wondering which one has the bigger number for P38 alpha kinase IC50, uM or % inhib @ conc. (uM): % inhib. Any idea? # respond with the chosen item's label
Result string: I
(I: 70.0 % @, II: 45.0 % @)
